Values from patent US20120232070A1

# systemUnderTest: hNurr1_RXRαFL (NURR1/RXRα heterodimer) (Homo sapiens, UniProt P19793+P43354)
# Sequence (P19793 whole entry, the tested form may be a part): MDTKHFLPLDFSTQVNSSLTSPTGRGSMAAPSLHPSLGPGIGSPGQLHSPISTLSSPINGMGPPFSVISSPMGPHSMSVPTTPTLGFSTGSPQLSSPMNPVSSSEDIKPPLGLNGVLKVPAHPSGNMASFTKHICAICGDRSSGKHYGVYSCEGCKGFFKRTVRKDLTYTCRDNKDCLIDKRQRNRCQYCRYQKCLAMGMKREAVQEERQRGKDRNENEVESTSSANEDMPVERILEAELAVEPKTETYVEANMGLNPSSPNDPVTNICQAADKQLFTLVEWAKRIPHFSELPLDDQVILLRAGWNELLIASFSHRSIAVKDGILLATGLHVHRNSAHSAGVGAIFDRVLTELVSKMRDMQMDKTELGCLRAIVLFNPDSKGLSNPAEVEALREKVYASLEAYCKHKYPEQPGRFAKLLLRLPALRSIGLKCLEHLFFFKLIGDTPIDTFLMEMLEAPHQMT
# Sequence (P43354 328-598): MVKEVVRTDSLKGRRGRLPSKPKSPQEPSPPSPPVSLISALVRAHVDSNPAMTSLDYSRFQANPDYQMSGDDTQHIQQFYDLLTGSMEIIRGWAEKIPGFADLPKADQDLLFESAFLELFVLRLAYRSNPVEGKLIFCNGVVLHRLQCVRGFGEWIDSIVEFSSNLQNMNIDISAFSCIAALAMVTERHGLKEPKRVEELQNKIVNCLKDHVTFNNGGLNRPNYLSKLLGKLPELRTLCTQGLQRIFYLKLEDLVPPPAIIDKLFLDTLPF
# assayName: Transactivation assay in Cos-7 cells, NURR-1-Gal4 / RXRα, luciferase reporter
# testSettings: Cos-7 cells, overnight incubation
recordedEndpoint: pEC50
Give bare numbers, as −log10 of the molar value.

Example cases with answers are listed next.
CS(=O)(=O)n1c(Cc2ccc(C(=O)O)cc2)cc2cc(Cl)ccc21; 5.86
O=C(O)c1ccc(Cc2cc3cc(Cl)ccc3n2S(=O)(=O)c2ccc(Cl)cc2)cc1; 6.34
COc1ccc(S(=O)(=O)n2c(Cc3ccc(C(=O)O)cc3)cc3cc(C(F)(F)F)ccc32)cn1; 6.69
Cc1cc(C(=O)O)ccc1Cc1cc2cc(C(F)(F)F)ccc2n1S(=O)(=O)c1cccc(C(C)(C)C)c1; 6.56
CC(C)(C)c1cccc(S(=O)(=O)n2c(Cc3nc(C(=O)O)cs3)cc3cc(C(F)(F)F)ccc32)c1; 6.58

// each listed molecule needs a value for pEC50
1. COC(=O)c1ccc(Cc2cc3cc(C(C)(C)C)ccc3n2S(=O)(=O)c2cccc(C(C)(C)C)c2)cc1
2. CC(C)(C)c1cccc(S(=O)(=O)n2c(Cc3ccc(C(=O)O)cc3)cc3cc(C(F)(F)F)c(F)cc32)c1
3. CC1(C)CCc2cc(S(=O)(=O)n3c(Cc4ccc(C(=O)O)cc4)cc4cc(C(F)(F)F)ccc43)ccc2O1
4. O=C(O)c1ccc(Cc2cc3cc(Cl)ccc3n2S(=O)(=O)c2ccc(F)cc2)cc1
5. CN1CCOc2ccc(S(=O)(=O)n3c(Cc4ccc(C(=O)O)s4)cc4cc(C(F)(F)F)ccc43)cc21
6. CC(C)c1ccc(S(=O)(=O)n2c(Cc3ccc(C(=O)O)c(Cl)c3)cc3cc(C(F)(F)F)ccc32)cc1
7. Cc1ccc(S(=O)(=O)n2c(Cc3ccc(C(=O)O)cc3)cc3cc(C(F)(F)F)ccc32)cc1

Marked response:
1. 6.80
2. 7.41
3. 6.66
4. 5.94
5. 7.43
6. 6.48
7. 6.67
